Target: T1, recombinant hAng2 (C-His, R&D Systems) (human, UniProt O15123 19-496)
T1 construct: Bought protein captured on an anti-His chip; not shown: C-terminal His tag
T1 sequence: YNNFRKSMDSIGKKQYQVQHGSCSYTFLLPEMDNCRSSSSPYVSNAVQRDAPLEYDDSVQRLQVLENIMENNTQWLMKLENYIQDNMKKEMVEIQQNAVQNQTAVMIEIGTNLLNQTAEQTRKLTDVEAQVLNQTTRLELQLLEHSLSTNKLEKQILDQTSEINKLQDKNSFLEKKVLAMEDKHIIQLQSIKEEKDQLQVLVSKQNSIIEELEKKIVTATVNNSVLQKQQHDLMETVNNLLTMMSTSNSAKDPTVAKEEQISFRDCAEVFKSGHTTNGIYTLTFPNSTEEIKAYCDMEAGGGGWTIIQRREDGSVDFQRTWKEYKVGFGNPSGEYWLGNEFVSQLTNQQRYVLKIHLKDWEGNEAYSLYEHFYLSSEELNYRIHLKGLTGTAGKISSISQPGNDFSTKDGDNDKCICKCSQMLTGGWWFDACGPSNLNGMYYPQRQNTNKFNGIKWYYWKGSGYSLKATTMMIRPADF
Experiment: SPR, BIAcore T100, hAng2-His captured on anti-His CM5 chip, antibody flowed
Procedure: To measure accurate affinities toward an anti-Ang2 antigen, antigen affinities were measured by a SPR method using a BIAcore T100 (GE Healthcare). […]
property_label: koff (s⁻¹)
Dear colleague, please return just the value in s⁻¹, with no unit written.

Take a look at these entries with their results.
SAIT-ANG-2-AB-8-A5 (IgG form) (antibody, V domains shown, Intact human antibody with human IgG1 constant region) VH: EVQLLESGGGLVQPGGSLRLSCAASGFTFSDYYMSWVRQAPGKGLEWVSGIYPSGGSTYYADSVKGRFTISRDNSKNTLYLQMNSLRAEDTAVYYCARDPSTLTYAGFDYWGQGTLVTVSS VL: QSVLTQPPSASGTPGQRVTISCSGSSSNIGNNYVTWYQQLPGTAPKLLIYADSHRPSGVPDRFSGSKSGTSASLAISGLRSEDEADYYCATWDYSLSGYVFGGGTKLTVLG	0.000327
SAIT-ANG-2-AB-3-D3 (IgG form) (antibody, V domains shown, Intact human antibody with human IgG1 constant region) VH: EVQLLESGGGLVQPGGSLRLSCAASGFTFSDYDMSWVRQAPGKGLEWVSGISSDDGNTYYADSVKGRFTISRDNSKNTLYLQMNSLRAEDTAVYYCARPTIDKYTLRGYYSYGMDVWGQGTLVTVSS VL: QSVLTQPPSASGTPGQRVTISCTGSSSNIGSNYVSWYQQLPGTAPKLLIYSDNKRPSGVPDRFSGSKSGTSASLAISGLRSEDEADYYCGTWDDSLNGYVFGGGTKLTVLG	0.000546
SAIT-ANG-2-AB-4-C11 (IgG form) (antibody, V domains shown, Intact human antibody with human IgG1 constant region) VH: EVQLLESGGGLVQPGGSLRLSCAASGFTFSDYAMSWVRQAPGKGLEWVSSIYPDDGNTYYADSVKGRFTISRDNSKNTLYLQMNSLRAEDTAVYYCARHTSHHTSIDGYYYYGMDGWGQGTLVTVSS VL: QSVLTQPPSASGTPGQRVTISCTGSSSNIGNNDVSWYQQLPGTAPKLLIYSDSKRPSGVPDRFSGSKSGTSASLAISGLRSEDEADYYCGSWDYSLSGYVFGGGTKLTVLG	0.00049
SAIT-ANG-2-AB-4-F11 (IgG form) (antibody, V domains shown, Intact human antibody with human IgG1 constant region) VH: EVQLLESGGGLVQTGGSLRLSCAASGFTFSDYAMSWVRQAPGKGLEWVSSIYPDDGNTYYADSVKGRFTISRDNSKNTLYLQMNSLRAEDTAVYYCAKHPVRLNLHPMYYYYGMDVWGQGTLVTVSS VL: QSVLTQPPSASGTPGQRVTISCTGSSSNIGNNAVSWYQQLPGTAPKLLIYSDSQRPSGVPDRFSGSKSGTSASLAISGLRSEDEADYYCATWDYSLSAYVFGGGTKLTVLG	0.000777
SAIT-ANG-2-AB-4-F5 (IgG form) (antibody, V domains shown, Intact human antibody with human IgG1 constant region) VH: EVQLLESGGGLVQPGGSLRLSCAASGFTFSDYDMSWVRQAPGKGLEWVSSISHGDSNKYYADSVKGRFTISRDNSKNTLYLQMNSLRAEDTAVYYCAKSSGIQESPPTYYYYGMDVWGQGTLVTVSS VL: QSVLTQPPSASGTPGQRVTISCSGSSSNIGSNAVNWYQQLPGTAPKLLIYADSNRPSGVPDRFSGSKSGTSASLAISGLRSEDEADYYCGSWDYSLSGYVFGGGTKLTVLG	0.00112

Notebook: SAIT-ANG-2-AB-2-E6 (IgG form) (antibody, V domains shown, Intact human antibody: VH cloned into a vector with the constant region and Fc region of human IgG1, VL into pFUSE2-CLIg-hl2 (light chain constant region)) VH: EVQLLESGGGLVQTGGSLRLSCAASGFTFSDYAMSWVRQAPGKGLEWVSAIYPDSGNKYYADSVKGRFTISRDNSKNTLYLQMNSLRAEDTAVYYCARHSSDPKVKSGYYDDGMDVWGQGTLVAVSS VL: QSVLTQPPSASGTPGQRVTISCSGSSSNIGNNAVNWYQQLPGTAPKLLIYADSNRPSGVPDRFSGSKSGTSASLAISGLRSEDEADYYCGSWDYSLSGYVFGGGTKLTVLG , koff read as 0.000795

Notebook: SAIT-ANG-2-AB-7-C9 (IgG form) (antibody, V domains shown, Intact human antibody with human IgG1 constant region) VH: EVQLLESGGGLVQPGGSLRLSCAASGFTFSNYAMSWVRQAPGKGLEWVSAISSGGGNIYYADSVKGRFTISRDNSKNTLYLQMNSLRAEDTAVYYCAKSGIQPSPPSMSSAYAMDVWGQGTLVTVSS VL: QSVLTQPPSASGTPGQRVTISCSGSSSNIGNNDVYWYQQLPGTAPKLLIYANSHRPSGVPDRFSGSKSGTSASLAISGLRSEDEADYYCGTWDYSLSGYVFGGGTKLTVLG , koff read as 0.000366
